SYSTEM TESTED: T1, MAdCAM-IgG1 Fc fusion protein
T1 construct: Made in CHO-DHFR cells and coated on plates at 4.5 µg/mL
T1 sequence (chain, as listed by the source limits assumed): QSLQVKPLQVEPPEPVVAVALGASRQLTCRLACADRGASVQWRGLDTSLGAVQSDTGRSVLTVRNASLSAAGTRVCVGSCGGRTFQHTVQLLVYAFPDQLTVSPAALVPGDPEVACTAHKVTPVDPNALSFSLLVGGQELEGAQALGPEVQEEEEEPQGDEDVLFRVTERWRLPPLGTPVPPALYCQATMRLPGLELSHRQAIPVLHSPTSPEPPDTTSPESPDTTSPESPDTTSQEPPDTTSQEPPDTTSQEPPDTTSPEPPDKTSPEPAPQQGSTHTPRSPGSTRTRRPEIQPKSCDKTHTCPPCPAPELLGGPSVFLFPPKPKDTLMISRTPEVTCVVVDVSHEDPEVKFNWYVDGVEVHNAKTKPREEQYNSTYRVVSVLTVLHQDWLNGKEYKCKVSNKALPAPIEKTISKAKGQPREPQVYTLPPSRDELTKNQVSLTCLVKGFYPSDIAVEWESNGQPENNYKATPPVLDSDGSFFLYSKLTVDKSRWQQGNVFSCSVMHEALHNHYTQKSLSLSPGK
ASSAY COMMENT: inhibition of adhesion of calcein-loaded JY cells to plate-coated MAdCAM-IgG1 Fc fusion (fluorescence)
OBSERVED PROPERTY: IC50 (µg/mL)

binder="7.16.6_L (antibody, V domains shown, The light chain is the parent 7.16.6 kappa chain, rebuilt as for m1; also called 7.16.6_L variant) VH: QVQLVQSGAEVKKPGASVKVSCKASGYTFTSYGINWVRQAPGQGLEWMGWISVYSGNTNYAQKLQGRVTMTADTSTSTAYMDLRSLRSDDTAVYYCAREGSSSSGDYYYGMDVWGQGTTVTVSS VL: DIVMTQTPLSLSVTPGQPASISCKSSQSLLHTDGTTYLYWYLQKPGQPPQLLIYEVSNRFSGVPDRFSGSGSGTDFTLKISRVEAEDVGIYYCMQNIQLPWTFGQGTKVEIKR" result=0.0356
binder="7.16.6_LVS (antibody, human IgG2, kappa, V domains shown, Recombinant, from transiently transfected FreeStyle HEK293 cells) VH: QVQLVQSGAEVKKPGASVKVSCKASGYTFTSYGINWVRQAPGQGLEWMGWISVYSGNTNYAQKLQGRVTMTADTSTSTAYMDLRSLRSDDTAVYYCAREGSSSSGDYYYGMDVWGQGTTVTVSS VL: DIVMTQTPLSLSVTPGQPASISCKSSQSLLHTDGTTYLYWYLQKPGQPPQLLIYEVSNRFSGVPDRFSGSGSGTDFTLKISRVEAEDVGVYYCMQSIQLPWTFGQGTKVEIKR" result=0.0458
binder="7.16.6_VS (antibody, human IgG2, kappa, V domains shown, Recombinant, from transiently transfected FreeStyle HEK293 cells; also called 7.16.6_VS adduct) VH: QVQLVQSGAEVKKPGASVKVSCKASGYTFTSYGINWVRQAPGQGLEWMGWISVYSGNTNYAQKVQGRVTMTADTSTSTAYMDLRSLRSDDTAVYYCAREGSSSSGDYYYGMDVWGQGTTVTVSS VL: DIVMTQTPLSLSVTPGQPASISCKSSQSLLHTDGTTYLYWYLQKPGQPPQLLIYEVSNRFSGVPDRFSGSGSGTDFTLKISRVEAEDVGVYYCMQSIQLPWTFGQGTKVEIKR" result=0.0582
binder="7.16.6_V (antibody, human IgG2, kappa, V domains shown, Recombinant, from transiently transfected FreeStyle HEK293 cells; also called 7.16.6_V adduct) VH: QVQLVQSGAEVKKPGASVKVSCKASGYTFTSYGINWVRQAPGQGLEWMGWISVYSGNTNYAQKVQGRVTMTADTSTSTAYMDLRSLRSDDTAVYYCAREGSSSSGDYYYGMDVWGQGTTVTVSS VL: DIVMTQTPLSLSVTPGQPASISCKSSQSLLHTDGTTYLYWYLQKPGQPPQLLIYEVSNRFSGVPDRFSGSGSGTDFTLKISRVEAEDVGVYYCMQNIQLPWTFGQGTKVEIKR" result=0.0412
